- System: S. mansoni adult worms
- experiment: Motility assay on adult parasites (pixel displacement, relative to DMSO control)
- Type: cell-based, Schistosoma mansoni
- cond: secondary screen, 10 μM, D5, Male adult worms
Rule: Fractional motility below -0.5 gives condition met. Equal to or above -0.5 gives condition not met.

Hi there! Is Fractional motility for C=C1C(=O)O[C@H]2[C@H]1CC/C(C)=C/CC[C@@]1(C)O[C@@H]21 [(-)-Parthenolide] below -0.5, do you know?
condition not met

And what about the compound `CC(C)(Cc1ccc2ccccc2c1)NC[C@@H](O)COc1cccc(Cl)c1C#N` ?
condition not met

Follow-up item: `CNCC[C@H](Oc1cccc2ccccc12)c1cccs1`
condition not met

Next record, please: `CN1CCN(C2=Nc3cc(Cl)ccc3Nc3ccccc32)CC1`
condition not met

---

- Test system: S. mansoni schistosomulae
- experiment: Motility assay on schistosomulae (pixel displacement, relative to DMSO control)
- Type: cell-based, Schistosoma mansoni
- cond: schistosomulae, 6h exposure, read at D5, 10 µM
- Experimental: Puerto Rican strain Biomphalaria glabrata snails infected with S. mansoni were kindly provided by Dr. Fred Lewis (Biomedical Research Institute and BEI Resources, MD, USA). Schistosomulae were obtained by exposing six to eight weeks-old snails to continuous light for 2 h at 32 °C. […]
Each record's class is read off its Fractional motility using these ranges: class A = under -0.9, class B = from -0.9 up to -0.5, class C = -0.5 and over

Example entries begin here.
molecule="O=C1Cc2cc(CCN3CCN(c4nsc5ccccc45)CC3)c(Cl)cc2N1 [Ziprasidone]" qualitative_label="class C"
molecule="C=C1C(=O)O[C@H]2[C@H]1CC/C(C)=C/CC[C@@]1(C)O[C@@H]21 [(-)-Parthenolide]" qualitative_label="class B"
molecule="COCCn1c2c([n+](Cc3cnccn3)c1C)C(=O)c1ccccc1C2=O [YM155]" qualitative_label="class A"
molecule="CNCc1ccc(-c2cc(-c3nc(-c4ccc(S(=O)(=O)C(C)C)cc4)cnc3N)on2)cc1 [VE-822]" qualitative_label="class C"
molecule="Cc1ccc(S(=O)(=O)c2ccc([N+](=O)[O-])o2)cc1 [NSC697923]" qualitative_label="class A"

Assign a bin to C=CC(=O)Nc1cc(Nc2nccc(-c3cn(C)c4ccccc34)n2)c(OC)cc1N(C)CCN(C)C [AZD9291]
class C

What about this molecule? O=[N+]([O-])C=Cc1ccc2c(c1)OCO2 [MNS, 3,4-methylenedioxy-β-nitrostyrene]
class B

Now the molecule CCc1ccc(OCc2ccccc2C(=O)Nc2ccc3nc(C)cc(N)c3c2)cc1 [JTC-801]
class B

Then what about the molecule C=C1C(=O)O[C@@H]2/C=C(\C)CC/C=C(\C)CC[C@@H]12 [Costunolide] ?
class B

Follow-up item: c1ccc(CNc2nc(NCc3ccccc3)c3ccccc3n2)cc1 [DBeQ]
class C

Also check CCOC(=O)CCNc1cc(N2CCc3ccccc3CC2)nc(-c2ccccn2)n1 [GSK J4]
class B

And what about the molecule O=[N+]([O-])c1ccc2c(c1)S(=O)(=O)C=C2 [Stattic] ?
class A

Follow-up item: CC(=O)c1cc([N+](=O)[O-])c(Sc2ccc(F)cc2F)s1 [P22077]
class C

Param item: COc1cc(N2CCC(N)CC2)ccc1Nc1ncc(Cl)c(-c2c[nH]c3ccccc23)n1 [AZD3463]
class B
